Each recorded value in this set is attributed to patent US11247965B2.

Experiment: In vitro cytotoxicity, MTT cell viability assay in HepG2 cells
Format: cell-based
Details: human, Cytotoxicity CC50
assayReadout: CC50 at 7 days

>>> datavalue("Cc1cc(NC(=O)c2ccc(F)c(C(F)(F)C(=O)N3CCC(F)(F)C3)c2)ccc1F")
"5 to 30 µM"
>>> datavalue("O=C(Nc1ccc(F)c(F)c1)c1ccc(F)c(C(F)(F)C(=O)NC[C@H](O)CO)c1")
"> 30 µM"
>>> datavalue("CCC(C)(C)NC(=O)C(F)(F)c1cc(C(=O)Nc2ccc(F)c(F)c2)ccc1F")
"5 to 30 µM"
>>> datavalue("COCC(C)(C)NC(=O)C(F)(F)c1cc(C(=O)Nc2ccc(F)c(C)c2)cn1C")
"> 30 µM"
>>> datavalue("O=C(Nc1ccc(F)c(F)c1)c1ccc(F)c(C(F)(F)C(=O)N2CCCCC2)c1")
"5 to 30 µM"
>>> datavalue("Cc1cc(NC(=O)c2ccc(F)c(C(F)(F)C(=O)N3[C@@H]4CC[C@H]3C[C@H](N)C4)c2)ccc1F")
"5 to 30 µM"
>>> datavalue("Cc1cc(NC(=O)c2ccc(F)c(C(F)(F)C(=O)N3C4CC[C@@H]3C[C@@H](C(=O)NCCO)C4)c2)ccc1F")
"> 30 µM"
>>> datavalue("C[C@H](NC(=O)C(F)(F)c1c(C(=O)Nc2ccc(F)c(Cl)c2)ccn1C)C(F)(F)F")
"> 30 µM"
>>> datavalue("Cc1cc(NC(=O)c2cc(C(F)(F)C(=O)NC(C)(C)C)n(C)n2)ccc1F")
"> 30 µM"
>>> datavalue("CC(C)(CO)NC(=O)C(F)(F)c1cc(C(=O)Nc2ccc(F)c(F)c2)ccc1F")
"5 to 30 µM"
>>> datavalue("COC(=O)N[C@@H]1C[C@H]2COC[C@@H](C1)N2C(=O)C(F)(F)c1cc(C(=O)Nc2ccc(F)c(C)c2)ccc1F")
"5 to 30 µM"

====

Assay: In vitro cytotoxicity, MTT cell viability assay in HepG2 cells
Format: cell-based
Details: human, Cytotoxicity CC50
assayReadout: CC50 at 7 days

>>> datavalue("Cc1cc(NC(=O)c2ccc(F)c(C(F)(F)C(=O)N3CCC[C@H]3B(O)O)c2)ccc1F")
"> 30 µM"
>>> datavalue("N#Cc1cc(NC(=O)c2ccc(F)c(C(F)(F)C(=O)N3CCC(O)C(F)(F)C3)c2)ccc1F (centres unmarked)")
"5 to 30 µM"
>>> datavalue("Cc1cc(NC(=O)c2ccc(F)c(C(F)(F)C(=O)NC(C)(C)CO)c2)ccc1F")
"> 30 µM"
>>> datavalue("Cc1cc(NC(=O)c2cc(C(F)(F)C(=O)NC(C)(C)C)n(C)c2C)ccc1F")
"5 to 30 µM"
>>> datavalue("CNCC(=O)NC1CCN(C(=O)C(F)(F)c2nc(C(=O)Nc3ccc(F)c(C)c3)ccc2F)CC1(C)C (centres unmarked)")
"5 to 30 µM"
>>> datavalue("CCn1ccc(C(=O)Nc2ccc(F)c(C)c2)c1C(F)(F)C(=O)NC(C)(C)C")
"> 30 µM"
>>> datavalue("O=C(Nc1ccnc(Cl)c1)c1ccc(F)c(C(F)(F)C(=O)N2CCC(O)CC2)c1")
"5 to 30 µM"
>>> datavalue("Cc1cc(NC(=O)c2ccc(F)c(C(F)(F)C(=O)N3CCC(O)(CO)CC3)c2)cc(F)n1")
"> 30 µM"
